Test system: PCTK3
Construct: gene CDK18
STUDY CONDITIONS: concentration: 1 μM, replicates: in singlicate; n = 1
Property: %Inh; scope: individual compounds

>  <COMPOUND>
Nc1nccc(-c2c(-c3ccc(F)cc3)ncn2C2CCN(CC(F)(F)F)CC2)n1 [SB-236560]

>  <SYSTEM UNDER TEST>
PCTK3

>  <%Inh, %>
0

$$$$
>  <COMPOUND>
CCn1cnc2c(N)ncnc21 [GW345098]

>  <SYSTEM UNDER TEST>
PCTK3

>  <%Inh, %>
0

$$$$
>  <COMPOUND>
[2H]C([2H])(c1cccc(C(F)(F)F)c1C)n1ccn2c(=O)nc(N3CCOCC3)cc12 [GSK2336394]

>  <SYSTEM UNDER TEST>
PCTK3

>  <%Inh, %>
11

$$$$
>  <COMPOUND>
CC(C)Oc1ccc2c(-c3ccnc(Nc4ccc(N5CCN(C)CC5)cc4)n3)cnn2n1 [GW696155]

>  <SYSTEM UNDER TEST>
PCTK3

>  <%Inh, %>
60

$$$$
>  <COMPOUND>
Cc1ccc(C(=O)NCC(N)=O)cc1-n1c(C)cc(OCc2ccc(F)cc2F)c(Br)c1=O

>  <SYSTEM UNDER TEST>
PCTK3;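 also: KINOMEscan kinase panel screen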

>  <%Inh, %>
22

$$$$
